# Tested on: RPMI-8226 leukemia
# Run description: NCI-60 one-dose screen, 48 h
# Particulars: 10 µM unless noted
This is part of a sample that, as a whole, favours compounds with a hit. Of some 83,000 tested, about 20% had one in any assay. Active and inactive are the calls of the source. The calls were made as follows: active = growth percent below 10; inactive = the rest.
Your reply should match one of these outcome classes. 1.0 (active), 0.0 (inactive)

Inquiry: Record lookup: outcome of this test for CCN1C(=O)CC(=O)N(CC)C1=S ?
Reply text: 0.0

Inquiry: Record lookup: outcome of this test for C[Se]/C=C1/C(=O)N(c2c(Cl)cccc2Cl)c2ccccc21 ?
Reply text: 1.0

Inquiry: Record lookup: outcome of this test for O=[N+]([O-])c1cc(Br)c(O)c(Br)c1 ?
Reply text: 0.0

Inquiry: Record lookup: outcome of this test for CCCCOCCOP(=O)(OCCOCCCC)OCCOCCCC ?
Reply text: 0.0

Inquiry: Record lookup: outcome of this test for O=C(Cc1ccccc1)c1ccccc1 ?
Reply text: 0.0

Inquiry: Record lookup: outcome of this test for c1ccc2c(c1)sc1ccccc12 ?
Reply text: 0.0

Inquiry: Record lookup: outcome of this test for Cc1ccc(S(=O)(=O)n2cc([C@@]3(O)C[C@H](CSC#N)OC3=O)c3ccccc32)cc1 ?
Reply text: 0.0

----------
# Tested on: BT-549 breast
# Run description: NCI-60 one-dose screen, 48 h
# Particulars: 10 µM unless noted
This is part of a sample that, as a whole, favours compounds with a hit. Of some 83,000 tested, about 20% had one in any assay. The source made the active and inactive calls. Rule for the calls: active = growth percent below 10; inactive = the rest.
Your reply should match one of these outcome classes. active, inactive

Inquiry: Record lookup: outcome of this test for S=P(SP(=S)(c1ccccc1)c1ccccc1)(c1ccccc1)c1ccccc1 ?
Reply text: inactive

Inquiry: Record lookup: outcome of this test for CC[C@H](C)[C@H]1O[C@]2(C=C[C@@H]1C)C[C@@H]1C[C@@H](C/C=C(\C)[C@@H](O[C@H]3C[C@H](OC)[C@@H](O[C@H]4C[C@H](OC)[C@@H](NC)[C@H](C)O4)[C@H](C)O3)[C@@H](C)/C=C/C=C3\CO[C@@H]4[C@H](O)C(C)=C[C@@H](C(=O)O1)[C@]34O)O2 ?
Reply text: active

Inquiry: Record lookup: outcome of this test for Cc1ccc(P(=O)(O)O)cc1 ?
Reply text: inactive

Inquiry: Record lookup: outcome of this test for COc1cc2c(cc1OC)[C@@H]1C(=O)c3ccc4c(c3O[C@@H]1CO2)C[C@H](C(C)C)O4 ?
Reply text: inactive

Inquiry: Record lookup: outcome of this test for C=CC[PH+](c1ccccc1)c1ccccc1.C=CC[PH+](c1ccccc1)c1ccccc1.[Pt+2].[S-]c1nc2ccccc2[nH]1.[S-]c1nc2ccccc2[nH]1 ?
Reply text: active

Inquiry: Record lookup: outcome of this test for N#CC(NC(=O)CCl)=C(Cl)Cl ?
Reply text: inactive

Inquiry: Record lookup: outcome of this test for COC(=O)[C@@H](C)C[C@H](Cc1ccccc1)NC(=O)c1cccc([C@@H](C[C@H](C(C)C)N(C)C(=O)[C@@H](NC(=O)[C@H]2CCCCN2C)C2CC2)OC(C)=O)n1 ?
Reply text: active

----------
# System: SK-MEL-28 melanoma
# Run description: NCI-60 one-dose screen, 48 h (100 = growth as untreated, 0 = no growth, -100 = all killed)
# Particulars: 10 µM unless noted
# Experimental: Growth inhibition of the SK-MEL-28 human tumor cell line is measured as a screen for anti-cancer activity. Cells are grown in 96 well plates and exposed to the test compound for 48 hours. Compounds are tested at a single concentration, which is 10^-5 M for most compounds. The reported endpoint is percent growth (GI% or GIPRCNT), where numbers from 0 - 100% represent growth inhibition, and numbers from -100% - 0 represent cell death. For example, a value of 40 represents 60% growth inhibition. […]
Compounds without any hit were thinned out: in the full panel of roughly 83,000, 20% have a hit. Active and inactive are the calls of the source. How the source made its calls: active means growth percent below 10; inactive means the rest.
Exercise: for every item that follows, state its recorded growth.

Inquiry: Retrieve growth measured for COc1ccn(C)c(=O)c1C#N and print it.
Reply text: 106% (inactive)

Inquiry: Retrieve growth measured for CC(C)CCC1C(=O)NC(=O)NC1=O and print it.
Reply text: 101% (inactive)

Inquiry: Retrieve growth measured for O=C1CN2CCC1CC2 and print it.
Reply text: 119% (inactive)

Inquiry: Retrieve growth measured for CCCn1cc2c3c(cccc31)[C@H]1C[C@@H](C)CN(C)[C@@H]1C2 and print it.
Reply text: 97.7% (inactive)

Inquiry: Retrieve growth measured for C[C@@H]1C/C=C\C(=O)O[C@H](/C=C/C#C/C=C/C(C)(C)[C@@H](O)c2cccc(O)c2Br)[C@@H](C)/C=C/[C@H](C)C[C@H](OC(N)=O)C1 and print it.
Reply text: 35.5% (inactive)

Inquiry: Retrieve growth measured for Cc1ccc(NC2=N[C@]34CC(=O)CC[C@]3(C)[C@H]3CC[C@]5(C)C(=O)CC[C@H]5[C@@H]3C[C@@H]4S2)c(C)c1 and print it.
Reply text: 50.8% (inactive)

Inquiry: Retrieve growth measured for Oc1cc(Cl)ccc1Oc1ccc(Cl)cc1Cl and print it.
Reply text: 46.8% (inactive)

Inquiry: Retrieve growth measured for CCN1C(=O)NC(=O)C(C)(N2C(=O)c3c(F)c(F)c(F)c(F)c3C2=O)C1=O (stereo not drawn) and print it.
Reply text: -45.5% (active)

Inquiry: Retrieve growth measured for C[C@]12CC[C@H]3[C@@H](CC=C4c5nc(N)sc5CC[C@@]43C)[C@@H]1CC[C@@H]2O and print it.
Reply text: 113% (inactive)

Inquiry: Retrieve growth measured for CC1(C)C=Cc2c(ccc3c2[N+]([O-])=C2C3=C[C@@]34NC(=O)[C@]5(CCCN5C3=O)C[C@@H]4C2(C)C)O1 and print it.
Reply text: 71.1% (inactive)

Inquiry: Retrieve growth measured for CCCCOCCOP(=O)(OCCOCCCC)OCCOCCCC and print it.
Reply text: 117% (inactive)

Inquiry: Retrieve growth measured for C/C(=C\c1ccn(-c2ccc(N)c(C(F)(F)F)c2)n1)[C@@H]1C[C@@H]2O[C@]2(C)CCC[C@H](C)[C@H](O)[C@@H](C)C(=O)C(C)(C)[C@@H](O)CC(=O)O1 and print it.
Reply text: 55.8% (inactive)

Inquiry: Retrieve growth measured for Oc1cc(N2CC2)c(O)cc1N1CC1 and print it.
Reply text: -50.9% (active)

Inquiry: Retrieve growth measured for O=CC1(c2ccccc2)CCN(Cc2ccccc2)CC1 and print it.
Reply text: 112% (inactive)

Inquiry: Retrieve growth measured for CCC1(CCSC#N)C(=O)NC(=O)NC1=O and print it.
Reply text: 110% (inactive)

Inquiry: Retrieve growth measured for N#CC(N)c1ccccc1 (stereo not drawn) and print it.
Reply text: 113% (inactive)

Inquiry: Retrieve growth measured for Cc1cc(N)ccc1N and print it.
Reply text: 107% (inactive)

Inquiry: Retrieve growth measured for CN1C2CCC1[C@@H](COC(=O)c1ccccc1)[C@@H](O)C2 (stereo partly drawn) and print it.
Reply text: 128% (inactive)

Inquiry: Retrieve growth measured for CCOC(=O)P(=O)(OCC)OCC and print it.
Reply text: 106% (inactive)

Inquiry: Retrieve growth measured for CO[C@H]1[C@H](O[C@@H]2C[C@@H]3C/C=C/C(=O)O[C@@H](CO)C[C@H](O)[C@@H]4C[C@H](C)[C@H](C/C=C\C=C\[C@H](C)C[C@H](C2)O3)O4)O[C@@H](C)[C@H](O)[C@H]1O and print it.
Reply text: 76.1% (inactive)

Inquiry: Retrieve growth measured for Cc1cc(Br)c([N+](=O)[O-])cc1[N+](=O)[O-] and print it.
Reply text: 116% (inactive)

Inquiry: Retrieve growth measured for CC1(C)N(Nc2ccccc2)C(=O)C2CCCN21 (stereo not drawn) and print it.
Reply text: 79% (inactive)

Inquiry: Retrieve growth measured for CC[C@H](C)[C@H](NC(=O)[C@H]1CCCCN1C)C(=O)N(C)[C@H](C(=O)NC12CC(C(=O)N[C@@H](Cc3ccccc3)C[C@H](C)C(=O)OC)(C1)C2)C(C)C and print it.
Reply text: 110% (inactive)

Inquiry: Retrieve growth measured for CCCCOC(N)=O and print it.
Reply text: 112% (inactive)

Inquiry: Retrieve growth measured for O=[N+]([O-])c1cc(Br)c(O)c(Br)c1 and print it.
Reply text: 120% (inactive)

Inquiry: Retrieve growth measured for Cc1cc(N(CCCl)CCCl)ccc1C=Nc1ccc(-c2csc(-c3ccccc3)n2)cc1 and print it.
Reply text: 105% (inactive)

Inquiry: Retrieve growth measured for CN(C)c1ccc(C=C2C(=O)NC(=O)NC2=O)cc1 and print it.
Reply text: 92.5% (inactive)

Inquiry: Retrieve growth measured for O=C1C=C(N2CC2)c2ccccc2C1=O and print it.
Reply text: 111% (inactive)

Inquiry: Retrieve growth measured for c1ccc2c(c1)sc1ccccc12 and print it.
Reply text: 105% (inactive)

Inquiry: Retrieve growth measured for O=C(O)c1cc([N+](=O)[O-])cc([N+](=O)[O-])c1 and print it.
Reply text: 106% (inactive)

Inquiry: Retrieve growth measured for C[C@]12CCc3sc(Nc4ccc(OC(F)(F)F)cc4)nc3C1=CC[C@@H]1[C@@H]2CC[C@]2(C)C(=O)CC[C@@H]12 and print it.
Reply text: 65.3% (inactive)

Inquiry: Retrieve growth measured for C=C[Se]CC(=O)/C=C/c1ccccc1 and print it.
Reply text: 96.1% (inactive)

Inquiry: Retrieve growth measured for O=Cc1cn(Cc2ccccc2)c2ccccc12 and print it.
Reply text: 216% (inactive)

Inquiry: Retrieve growth measured for O=C(O)C(F)F and print it.
Reply text: 116% (inactive)

Inquiry: Retrieve growth measured for Cc1nc2ccccc2c(=O)n1-c1ccccc1F and print it.
Reply text: 111% (inactive)

Inquiry: Retrieve growth measured for C/C(=N/OC(=O)N(C)C)c1ccc(Cl)c(Cl)c1 and print it.
Reply text: 105% (inactive)

Inquiry: Retrieve growth measured for CCCCn1c(=O)c(C(=O)NCc2ccccc2Cl)c(O)c2ccccc21 and print it.
Reply text: 103% (inactive)

Inquiry: Retrieve growth measured for COc1ccc(C(C#N)C(C)=O)cc1 (stereo not drawn) and print it.
Reply text: 115% (inactive)

Inquiry: Retrieve growth measured for Nc1ccc(S(=O)(=O)F)cc1 and print it.
Reply text: 114% (inactive)

Inquiry: Retrieve growth measured for CN1CCN(c2ccc(Cl)cc2)CC1 and print it.
Reply text: 99.1% (inactive)

Inquiry: Retrieve growth measured for NC(=O)Oc1cc(OC(N)=O)cc(N(CCCl)CCCl)c1 and print it.
Reply text: 82.5% (inactive)

Inquiry: Retrieve growth measured for CC[C@H](C)[C@H](NC(=O)[C@H]1CCCCN1C)C(=O)N(C)[C@H](C[C@@H](OC(C)=O)c1nc(C(=O)NC23C4C5C2C2C3C4C52C(=O)OC)cs1)C(C)C (stereo partly drawn) and print it.
Reply text: 59.1% (inactive)

Inquiry: Retrieve growth measured for COc1ccc2c(c1)c(-c1nc(-c3c[nH]c4ncccc34)cs1)cn2CCCCN1CCOCC1 and print it.
Reply text: -90.3% (active)
